- Tested target: T1, L22 ClpS with ClpA6 (E. coli, UniProt P0ABH9 1-758; P0A8Q6 22-106)
- T1 sequence (looked up) 1: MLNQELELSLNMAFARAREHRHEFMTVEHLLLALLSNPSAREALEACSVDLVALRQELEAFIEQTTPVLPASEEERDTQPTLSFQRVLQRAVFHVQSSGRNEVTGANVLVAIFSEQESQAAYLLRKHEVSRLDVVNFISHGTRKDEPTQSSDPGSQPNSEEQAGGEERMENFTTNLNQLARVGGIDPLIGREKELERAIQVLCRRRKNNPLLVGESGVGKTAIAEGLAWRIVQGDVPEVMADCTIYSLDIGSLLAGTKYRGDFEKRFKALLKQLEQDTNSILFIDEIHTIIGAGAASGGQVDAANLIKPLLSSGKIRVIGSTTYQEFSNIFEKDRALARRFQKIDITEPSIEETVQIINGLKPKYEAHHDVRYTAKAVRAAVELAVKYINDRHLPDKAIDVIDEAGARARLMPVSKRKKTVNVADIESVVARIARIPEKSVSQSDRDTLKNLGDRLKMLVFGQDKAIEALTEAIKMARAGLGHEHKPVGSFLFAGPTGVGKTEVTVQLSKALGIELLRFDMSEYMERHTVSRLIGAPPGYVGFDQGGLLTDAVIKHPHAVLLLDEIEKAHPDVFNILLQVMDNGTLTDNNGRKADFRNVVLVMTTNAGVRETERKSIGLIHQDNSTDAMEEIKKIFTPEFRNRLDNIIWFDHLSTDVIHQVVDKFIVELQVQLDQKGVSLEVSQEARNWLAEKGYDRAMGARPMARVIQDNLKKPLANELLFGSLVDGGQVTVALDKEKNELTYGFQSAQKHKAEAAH
- T1 sequence (looked up) 2: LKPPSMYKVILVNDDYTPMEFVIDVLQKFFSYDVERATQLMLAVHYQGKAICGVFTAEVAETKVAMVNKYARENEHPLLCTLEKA
- Run description: fluorescence polarisation
No end group written: not given here.
Reported property: Kd (nM)
Record the value in nM, omitting the unit from your answer.

I am curious: what Kd value has been reported for LLYVQRDSKEC(fluorescein maleimide) [fluorescent N-end-rule peptide LLYVQRDSKEC-fl] ?
290
